Recorded values, source patent US20230416249A1.

In this section, each of the molecules is paired with its reported log10(IC50).
biological target: mutEGFR (D770_N771insSVD) (Homo sapiens, UniProt P00533, DUP768-770); construct: GST-EGFR #3 (SVD between D770 and N771); assay: Exon20-Mutant-EGFR(D770_N771insSVD) kinase assay (TR-FRET); details: GST-EGFR ins SVD, 2 mM ATP, 15 min pre-incubation
Sequence (P00533 with tags, fused parts or gaps DUP768-770): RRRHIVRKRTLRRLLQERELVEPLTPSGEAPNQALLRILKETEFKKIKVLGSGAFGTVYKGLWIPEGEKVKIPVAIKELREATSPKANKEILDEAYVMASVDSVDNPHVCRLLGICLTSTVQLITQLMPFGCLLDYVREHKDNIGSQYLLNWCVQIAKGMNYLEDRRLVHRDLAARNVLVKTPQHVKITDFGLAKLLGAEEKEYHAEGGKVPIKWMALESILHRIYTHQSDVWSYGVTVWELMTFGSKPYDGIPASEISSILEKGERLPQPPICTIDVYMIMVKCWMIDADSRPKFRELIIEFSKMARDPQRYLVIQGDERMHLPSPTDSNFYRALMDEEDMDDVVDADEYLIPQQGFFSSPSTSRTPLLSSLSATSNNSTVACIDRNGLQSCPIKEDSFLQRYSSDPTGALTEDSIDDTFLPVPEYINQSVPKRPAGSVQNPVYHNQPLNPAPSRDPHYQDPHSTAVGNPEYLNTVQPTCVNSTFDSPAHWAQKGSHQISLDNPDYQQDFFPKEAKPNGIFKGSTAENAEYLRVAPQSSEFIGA
Note the log scale: values are log10 of IC50 expressed in nM.

Examples from the recorded data:
| Structure | log10(IC50) |
| --- | --- |
| C=CC(=O)N(C)CCOc1cnccc1-c1[nH]c2c(c1Nc1cccc(Cl)c1OC)C(=O)NCC2 | -0.64 |
| COc1c(Cl)cccc1Nc1c(-c2ccncc2OCCN(C)C(=O)/C=C/CN(C)C)[nH]c2c1C(=O)NCC2 | 0.39 |
| C=CC(=O)N(C)CCOc1cnccc1-c1[nH]c2c(c1Nc1ccc(F)cc1)C(=O)NCC2 | 0.21 |
| C=CC(=O)NCCOc1cnccc1-c1[nH]c2c(c1Nc1cccc(F)c1C)C(=O)NCC2 | -0.41 |
| C=CC(=O)N(C)CCOc1cnccc1-c1[nH]c2c(c1Nc1cccc(F)c1OC)C(=O)NCC2 | -0.77 |

What log10(IC50) appears in the records for this molecule with mutEGFR (D770_N771insSVD) (Homo sapiens, UniProt P00533, DUP768-770)? C=CC(=O)N1CCC[C@H]1COc1cnccc1-c1[nH]c2c(c1Nc1cccc(Cl)c1OC)C(=O)NCC2
-0.69

Also check C=CC(=O)N(C)CCOc1cnccc1-c1[nH]c2c(c1Nc1cccc(Cl)c1OC)C(=O)NC(C)(C)C2
-0.23

Also check COc1c(F)cccc1Nc1c(-c2ccncc2OCCN(C)C(=O)/C=C/CN(C)C)[nH]c2c1C(=O)NCC2
-0.26

Also check C=CC(=O)NCCCOc1cnccc1-c1[nH]c2c(c1Nc1cccc(Cl)c1OC)C(=O)NCC2
-0.52

Also check COc1c(Cl)cccc1Nc1c(-c2ccncc2OCCN(C)C(=O)/C=C/CN(C)C)[nH]c2c1C(=O)NC1(CCC1)C2
0.55

Also check C=CC(=O)NCCOc1cnccc1-c1[nH]c2c(c1Nc1cccc(Cl)c1C)C(=O)NCC2
-0.58

Also check C=CC(=O)N(C)CCOc1cnccc1-c1[nH]c2c(c1Nc1cccc(Cl)c1OC)C(=O)NC1(CCC1)C2
-0.33

Also check C=CC(=O)N(C)CCOc1cnccc1-c1[nH]c2c(c1Nc1ccccc1OC(F)F)C(=O)NCC2
-0.24

Also check C=CC(=O)NCCOc1cnccc1-c1[nH]c2c(c1Nc1cccc(Cl)c1OC)C(=O)NCC2
-0.81

----------
molecular target: Ba/F3-EGFR-insSVD cells (Homo sapiens, UniProt P00533, DUP768-770, cells depend on it); experiment: Ba/F3 cell survival assay (Cell Titer-Glo), EGFR-insSVD; assay type: cell-based; details: 48 h, without IL-3, 10 ng/mL EGF; read-out: BA/F3 (insSVD) IC50
Sequence (P00533 with tags, fused parts or gaps DUP768-770): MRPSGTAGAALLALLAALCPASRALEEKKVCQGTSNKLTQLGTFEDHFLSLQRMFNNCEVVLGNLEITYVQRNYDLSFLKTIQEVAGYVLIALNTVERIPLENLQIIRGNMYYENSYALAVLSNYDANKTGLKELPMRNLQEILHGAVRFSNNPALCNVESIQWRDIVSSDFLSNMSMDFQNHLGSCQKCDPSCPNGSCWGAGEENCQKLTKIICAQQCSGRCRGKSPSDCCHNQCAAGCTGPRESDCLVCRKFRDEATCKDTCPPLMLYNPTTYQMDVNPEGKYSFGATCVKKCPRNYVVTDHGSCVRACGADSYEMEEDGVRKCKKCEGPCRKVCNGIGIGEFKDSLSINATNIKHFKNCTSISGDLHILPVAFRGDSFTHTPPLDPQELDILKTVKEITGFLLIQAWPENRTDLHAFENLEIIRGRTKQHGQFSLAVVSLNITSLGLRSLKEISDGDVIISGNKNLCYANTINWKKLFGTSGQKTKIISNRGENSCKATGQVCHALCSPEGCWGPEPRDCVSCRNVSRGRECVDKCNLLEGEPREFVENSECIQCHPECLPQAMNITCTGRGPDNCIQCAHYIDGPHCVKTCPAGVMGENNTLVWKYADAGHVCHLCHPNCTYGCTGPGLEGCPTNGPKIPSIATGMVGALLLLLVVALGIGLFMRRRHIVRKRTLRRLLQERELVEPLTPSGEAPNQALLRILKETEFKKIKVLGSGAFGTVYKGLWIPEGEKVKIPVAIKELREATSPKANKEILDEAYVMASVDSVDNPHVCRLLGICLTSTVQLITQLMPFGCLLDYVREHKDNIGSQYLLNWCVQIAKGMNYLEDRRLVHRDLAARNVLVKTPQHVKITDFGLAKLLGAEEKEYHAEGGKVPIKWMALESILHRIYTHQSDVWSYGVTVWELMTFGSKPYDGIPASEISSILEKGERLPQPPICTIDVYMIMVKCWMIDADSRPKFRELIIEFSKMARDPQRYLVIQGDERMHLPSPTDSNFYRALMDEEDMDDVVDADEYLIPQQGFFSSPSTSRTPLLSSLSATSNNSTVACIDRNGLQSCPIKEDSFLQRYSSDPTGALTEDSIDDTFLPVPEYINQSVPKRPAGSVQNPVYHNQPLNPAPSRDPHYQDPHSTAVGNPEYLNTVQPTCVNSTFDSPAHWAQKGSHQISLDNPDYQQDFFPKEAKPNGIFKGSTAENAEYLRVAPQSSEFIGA
In this section, each of the compounds is paired with its reported GI50.
Just the number in nM, nothing appended.

Examples from the recorded data:
| Compound | GI50 / nM |
| --- | --- |
| C=CC(=O)N(C)CCOc1cnccc1-c1[nH]c2c(c1Nc1cccc(Cl)c1OC)C(=O)NC1(CCC1)C2 [Example 11] | 12.2 |
| C=CC(=O)NCCCOc1cnccc1-c1[nH]c2c(c1Nc1cccc(Cl)c1OC)C(=O)NCC2 [Example 4] | 519 |
| C=CC(=O)N1CCC[C@H]1COc1cnccc1-c1[nH]c2c(c1Nc1cccc(Cl)c1OC)C(=O)NCC2 [Example 13] | 6.69 |

Could you share which GI50 value was measured for C=CC(=O)NCCOc1cnccc1-c1[nH]c2c(c1Nc1cccc(Cl)c1OC)C(=O)NCC2 [Example 1] ?
376

----------
biological target: Ba/F3-EGFR-WT cells (Homo sapiens, UniProt P00533); experiment: Ba/F3 cell survival assay (Cell Titer-Glo), WT EGFR; type: cell-based; details: 48 h, without IL-3, 10 ng/mL EGF; read-out: BA/F3 (wild type) IC50
Sequence (P00533 whole entry, change not shown): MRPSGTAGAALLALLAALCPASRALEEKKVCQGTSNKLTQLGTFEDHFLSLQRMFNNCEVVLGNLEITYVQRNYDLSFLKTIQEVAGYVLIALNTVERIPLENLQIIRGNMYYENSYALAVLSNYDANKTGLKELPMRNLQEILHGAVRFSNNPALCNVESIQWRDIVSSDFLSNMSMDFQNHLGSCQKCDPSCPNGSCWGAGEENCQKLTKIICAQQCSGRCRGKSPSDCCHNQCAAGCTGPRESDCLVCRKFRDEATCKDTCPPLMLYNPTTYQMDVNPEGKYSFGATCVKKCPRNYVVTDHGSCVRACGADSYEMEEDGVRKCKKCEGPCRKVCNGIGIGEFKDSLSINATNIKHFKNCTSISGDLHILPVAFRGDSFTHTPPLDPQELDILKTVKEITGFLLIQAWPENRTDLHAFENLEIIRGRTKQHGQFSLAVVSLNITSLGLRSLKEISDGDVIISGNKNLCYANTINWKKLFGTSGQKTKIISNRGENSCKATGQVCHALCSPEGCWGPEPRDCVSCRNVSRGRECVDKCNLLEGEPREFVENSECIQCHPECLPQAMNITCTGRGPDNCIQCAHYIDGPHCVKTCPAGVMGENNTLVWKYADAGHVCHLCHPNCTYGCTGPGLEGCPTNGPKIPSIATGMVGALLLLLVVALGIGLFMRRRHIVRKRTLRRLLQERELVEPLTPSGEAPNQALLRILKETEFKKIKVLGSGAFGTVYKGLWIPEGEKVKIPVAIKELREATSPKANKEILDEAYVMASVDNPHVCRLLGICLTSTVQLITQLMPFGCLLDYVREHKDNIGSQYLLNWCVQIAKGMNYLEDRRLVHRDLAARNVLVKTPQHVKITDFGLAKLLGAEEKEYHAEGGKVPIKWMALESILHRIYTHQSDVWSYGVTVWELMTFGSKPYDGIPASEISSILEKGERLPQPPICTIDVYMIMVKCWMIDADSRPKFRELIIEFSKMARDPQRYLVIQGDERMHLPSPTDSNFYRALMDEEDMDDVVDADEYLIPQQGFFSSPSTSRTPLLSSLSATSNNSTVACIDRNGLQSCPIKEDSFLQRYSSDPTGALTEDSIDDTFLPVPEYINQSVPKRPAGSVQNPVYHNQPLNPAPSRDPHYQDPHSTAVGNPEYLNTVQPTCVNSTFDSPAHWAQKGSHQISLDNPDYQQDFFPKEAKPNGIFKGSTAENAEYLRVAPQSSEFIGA
In this section, each of the molecules is paired with its reported log10(GI50).
Note the log scale: values are log10 of GI50 expressed in nM.

| Molecule | Reported Endpoint | Readout Value |
| --- | --- | --- |
| C=CC(=O)N(C)CCOc1cnccc1-c1[nH]c2c(c1Nc1ccccc1OC(F)F)C(=O)NCC2 [Example 14] | log10(GI50) | 2.81 |
| COc1c(Cl)cccc1Nc1c(-c2ccncc2OCCN(C)C(=O)/C=C/CN(C)C)[nH]c2c1C(=O)NCC2 [Example 9] | log10(GI50) | 3.66 |
| C=CC(=O)N1CCC[C@H]1COc1cnccc1-c1[nH]c2c(c1Nc1cccc(Cl)c1OC)C(=O)NCC2 [Example 13] | log10(GI50) | 1.71 |
| C=CC(=O)NCCOc1cnccc1-c1[nH]c2c(c1Nc1cccc(Cl)c1C)C(=O)NCC2 [Example 3] | log10(GI50) | 2.75 |
| C=CC(=O)NCCCOc1cnccc1-c1[nH]c2c(c1Nc1cccc(Cl)c1OC)C(=O)NCC2 [Example 4] | log10(GI50) | 3.65 |
| C=CC(=O)N(C)CCOc1cnccc1-c1[nH]c2c(c1Nc1cccc(Cl)c1OC)C(=O)NC(C)(C)C2 [Example 12] | log10(GI50) | 2.52 |

Let us move to another entry and its log10(GI50).
Could you share which log10(GI50) value was measured for C=CC(=O)NCCOc1cnccc1-c1[nH]c2c(c1Nc1cccc(Cl)c1OC)C(=O)NCC2 [Example 1] ?
3.48

----------
In this section, each of the compounds is paired with its reported GI50.
target: Ba/F3-EGFR-L858R T790M cells (Homo sapiens, UniProt P00533, T790M/L858R, cells depend on it); test: Ba/F3 cell survival assay (Cell Titer-Glo), EGFR-L858R T790M; assay type: cell-based; details: 48 h, without IL-3, 10 ng/mL EGF; read-out: BA/F3 (L858R T790M) IC50
Sequence (P00533 whole entry T790M/L858R): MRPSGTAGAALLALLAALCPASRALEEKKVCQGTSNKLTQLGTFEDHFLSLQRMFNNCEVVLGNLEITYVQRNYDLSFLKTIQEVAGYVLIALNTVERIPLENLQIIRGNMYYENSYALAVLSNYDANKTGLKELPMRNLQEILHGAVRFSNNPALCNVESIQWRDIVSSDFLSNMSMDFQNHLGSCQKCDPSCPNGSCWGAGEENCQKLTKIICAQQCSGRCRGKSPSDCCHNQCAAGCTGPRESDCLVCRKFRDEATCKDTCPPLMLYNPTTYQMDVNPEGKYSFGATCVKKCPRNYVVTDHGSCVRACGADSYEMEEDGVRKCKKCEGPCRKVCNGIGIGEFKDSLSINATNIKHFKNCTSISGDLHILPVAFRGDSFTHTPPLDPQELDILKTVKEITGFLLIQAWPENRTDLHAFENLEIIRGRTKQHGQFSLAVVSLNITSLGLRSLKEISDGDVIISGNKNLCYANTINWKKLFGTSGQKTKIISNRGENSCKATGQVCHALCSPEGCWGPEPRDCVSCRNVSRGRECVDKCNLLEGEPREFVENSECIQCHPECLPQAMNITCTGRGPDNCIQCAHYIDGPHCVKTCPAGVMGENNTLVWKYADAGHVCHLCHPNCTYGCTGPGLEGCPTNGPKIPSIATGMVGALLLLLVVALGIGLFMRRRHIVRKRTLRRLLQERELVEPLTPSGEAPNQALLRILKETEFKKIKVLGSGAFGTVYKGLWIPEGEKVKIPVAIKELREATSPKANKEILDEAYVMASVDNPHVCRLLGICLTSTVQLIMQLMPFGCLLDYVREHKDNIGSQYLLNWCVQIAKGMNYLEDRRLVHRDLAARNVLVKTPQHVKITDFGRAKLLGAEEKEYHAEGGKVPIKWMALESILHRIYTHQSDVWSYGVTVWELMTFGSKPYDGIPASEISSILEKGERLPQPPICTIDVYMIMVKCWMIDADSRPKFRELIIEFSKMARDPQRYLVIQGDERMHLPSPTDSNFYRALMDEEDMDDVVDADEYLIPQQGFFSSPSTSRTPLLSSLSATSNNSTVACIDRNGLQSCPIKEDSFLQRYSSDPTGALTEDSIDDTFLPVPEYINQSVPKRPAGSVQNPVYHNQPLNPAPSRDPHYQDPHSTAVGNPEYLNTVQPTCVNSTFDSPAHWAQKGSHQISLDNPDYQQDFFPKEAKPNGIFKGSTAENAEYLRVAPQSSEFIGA
Just the number in nM, nothing appended.

Examples from the recorded data:
| Structure | GI50, nM |
| --- | --- |
| C=CC(=O)NCCOc1cnccc1-c1[nH]c2c(c1Nc1cccc(Cl)c1C)C(=O)NCC2 | 201 |
| C=CC(=O)N(C)CCOc1cnccc1-c1[nH]c2c(c1Nc1cccc(Cl)c1OC)C(=O)NC1(CCC1)C2 | 198 |

Let us move to another entry and its GI50.
Could you share which GI50 value was measured for C=CC(=O)NCCOc1cnccc1-c1[nH]c2c(c1Nc1cccc(F)c1C)C(=O)NCC2 ?
215

----------
biological target: Ba/F3-EGFR-insSVD cells (Homo sapiens, UniProt P00533, DUP768-770, cells depend on it); assay: Ba/F3 cell survival assay (Cell Titer-Glo), EGFR-insSVD; assay type: cell-based; conditions: 48 h, without IL-3, 10 ng/mL EGF; read-out: BA/F3 (insSVD) IC50
In this section, each of the compounds is paired with its reported GI50.
Just the number in nM, nothing appended.

Examples from the recorded data:
| Compound | GI50 [nM] |
| --- | --- |
| C=CC(=O)N(C)CCOc1cnccc1-c1[nH]c2c(c1Nc1cccc(Cl)c1OC)C(=O)NC(C)(C)C2 [Example 12] | 17.7 |
| C=CC(=O)N(C)CCOc1cnccc1-c1[nH]c2c(c1Nc1cccc(Cl)c1OC)C(=O)NCC2 [Example 5] | 5.77 |
| COc1c(F)cccc1Nc1c(-c2ccncc2OCCN(C)C(=O)/C=C/CN(C)C)[nH]c2c1C(=O)NCC2 [Example 8] | 240 |
| C=CC(=O)NCCOc1cnccc1-c1[nH]c2c(c1Nc1cccc(Cl)c1C)C(=O)NCC2 [Example 3] | 40.2 |
| COc1c(Cl)cccc1Nc1c(-c2ccncc2OCCN(C)C(=O)/C=C/CN(C)C)[nH]c2c1C(=O)NC1(CCC1)C2 [Example 10] | 205 |

What GI50 appears in the records for this compound with Ba/F3-EGFR-insSVD cells (Homo sapiens, UniProt P00533, DUP768-770, cells depend on it)? C=CC(=O)NCCOc1cnccc1-c1[nH]c2c(c1Nc1cccc(F)c1C)C(=O)NCC2 [Example 2]
57.9

Also check COc1c(Cl)cccc1Nc1c(-c2ccncc2OCCN(C)C(=O)/C=C/CN(C)C)[nH]c2c1C(=O)NCC2 [Example 9]
263

Also check C=CC(=O)N(C)CCOc1cnccc1-c1[nH]c2c(c1Nc1ccc(F)cc1)C(=O)NCC2 [Example 7]
146

Also check C=CC(=O)N(C)CCOc1cnccc1-c1[nH]c2c(c1Nc1cccc(F)c1OC)C(=O)NCC2 [Example 6]
8.94

Also check C=CC(=O)N(C)CCOc1cnccc1-c1[nH]c2c(c1Nc1ccccc1OC(F)F)C(=O)NCC2 [Example 14]
35.4
